// Cathepsin B (Homo sapiens) pKi records
Scale: negative log10 of molar concentration, which is what pKi denotes.

These recorded examples may help you get a feel for the data.
O=CC(Cc1ccccc1)NC(=O)[C@H]1CCCN1S(=O)(=O)c1ccc(Cl)cc1 (mixture of isomers) :: 5.27
O=CC(Cc1ccccc1)NC(=O)[C@H]1CCCN1S(=O)(=O)c1ccc([N+](=O)[O-])cc1 (some centres undefined) :: 5.43
O=CC(Cc1ccccc1)NC(=O)[C@H]1CSCN1S(=O)(=O)c1ccc(I)cc1 (mixture of isomers) :: 6.96
COc1ccc(S(=O)(=O)N2CCC[C@@H]2C(=O)NC(C=O)Cc2ccccc2)cc1 (mixture of isomers) :: 5.83
O=CC(Cc1ccccc1)NC(=O)[C@H]1CSCN1S(=O)(=O)c1ccc(Cl)cc1 (mixture of isomers) :: 6.64
CCCCS(=O)(=O)N1CCC[C@@H]1C(=O)NC(C=O)Cc1ccccc1 (mixture of isomers) :: 5.83

Entry O=CC(Cc1ccccc1)NC(=O)[C@H]1CSCN1S(=O)(=O)c1ccc(F)cc1 (mixture of isomers) : pKi on Cathepsin B (Homo sapiens) = 6.47

// compound O=CC(Cc1ccccc1)NC(=O)[C@H]1CCCN1S(=O)(=O)c1cccc2ccccc12 (mixture of isomers) , assay Cathepsin B (Homo sapiens), pKi value: 5.60

// returns pKi for COc1ccc(S(=O)(=O)N2CCC[C@@H]2C(=O)NC(Cc2ccccc2)C(=O)C(=O)NCCc2ccccc2)cc1 (mixture of isomers) with Cathepsin B (Homo sapiens); value = 5.59
